Reference source for all entries: PubChem BioAssay (NCI)

system: MOLT-4 leukemia; assay: NCI-60 one-dose screen, 48 h; conditions: 10 µM unless noted
This is part of a sample that, as a whole, favours compounds with a hit. Of some 83,000 tested, about 20% had one in any assay. Calls of active or inactive are those of the source. Rule for the calls: active = growth percent below 10; inactive = the rest.
Respond with a class label; see active, inactive

INSERT INTO results (molecule, discrete_label) VALUES
  ('CCOC(=O)C(=O)CC(=O)c1ccccc1', 'inactive');

Inquiry: How did this test come out for CC(=O)C1C(=O)C(=O)N(c2cccc([N+](=O)[O-])c2)C1=O (centres undefined) ?
Reply text: inactive

Inquiry: Please indicate how the test categorized CN(C(=S)S(=O)(=O)C12CC3CC(CC(C3)C1)C2)c1ccccc1 .
Reply text: inactive
